Every entry's value here was drawn from patent US7378413B2.

For each entry below, report its melting point value.
Where a name gives a salt, the structure may show the parent alone.

[Q] So what's the measured melting point for this one? Cn1c(NCCOc2ccccc2)nc(-c2ccncc2)cc1=O
[A] 193 to 194 °C

[Q] # query: melting point of entry CCCOCCNc1nc(-c2ccncc2)cc(=O)n1C
[A] 147 to 150 °C

[Q] I have this compound here, Cn1c(NCCc2cccc(F)c2)nc(-c2ccncc2)cc1=O , and I need its recorded melting point.
[A] 158.9 to 159.2 °C

[Q] # input compound: NCCCCCCn1c(NCCc2ccccc2)nc(-c2ccncc2)cc1=O (as salt: hydrochloride) ; wanted: its melting point
[A] 125 to 127 °C

[Q] Please report the recorded melting point for Cn1c(NCc2cccc(OCCCc3ccncc3)c2)nc(-c2ccncc2)cc1=O (as salt: hydrochloride) .
[A] 210 to 213 °C

[Q] Name the recorded melting point for Cn1c(NCc2cccc(OCCCN)c2)nc(-c2ccncc2)cc1=O (as salt: hydrochloride) .
[A] 193 to 196 °C

[Q] Reported melting point, compound Cn1c(NCCNc2ccccc2)nc(-c2ccncc2)cc1=O : ____
[A] 102 to 105 °C

[Q] Consider the compound COc1ccc(OC)c(CCNc2nc(-c3ccncc3)cc(=O)n2C)c1 and give its measured melting point.
[A] 180.9 to 181.3 °C

[Q] Consider the compound shown here: NCCCCCn1c(NCCc2ccccc2)nc(-c2ccncc2)cc1=O (as salt: hydrochloride) What is its recorded melting point?
[A] 178 to 180 °C

[Q] Any idea what its melting point is? The compound is Cn1c(NCCc2cccs2)nc(-c2ccncc2)cc1=O
[A] 171.7 to 171.9 °C

[Q] Record request: melting point value, item Cn1c(NCCCc2ccccc2)nc(-c2ccncc2)cc1=O [Compound 78]
[A] 122 to 124 °C

[Q] Query (compound): Cn1c(NCCC23CC4CC(CC(C4)C2)C3)nc(-c2ccncc2)cc1=O ; field requested: melting point
[A] 107 to 111 °C

[Q] // melting point lookup, key: CC(=O)OCCCOc1cccc(CNc2nc(-c3ccncc3)cc(=O)n2C)c1
[A] 198 to 201 °C

[Q] What value of melting point has been recorded for this entry: Cn1c(NCCSc2ccccc2)nc(-c2ccncc2)cc1=O
[A] 162 to 168 °C

[Q] Look up melting point: CCCCCCCCNc1nc(-c2ccncc2)cc(=O)n1C
[A] 114 to 116 °C

[Q] Bench note: what melting point did Cn1c(NCCCCCO)nc(-c2ccncc2)cc1=O show?
[A] 164 to 165 °C

[Q] // query melting point value for entry CN(CCCC1CCCCC1)c1nc(-c2ccncc2)cc(=O)n1C (as salt: hydrochloride)
[A] 188 to 191 °C

[Q] Report melting point for NCCCCCn1c(NCCCc2ccccc2)nc(-c2ccncc2)cc1=O (as salt: hydrochloride) please.
[A] 123 to 126 °C

[Q] // query melting point value for entry Cn1c(NC2CCCCC2)nc(-c2ccncc2)cc1=O
[A] 268 to 270 °C

----------
Structures can show the parent of a compound that is named as a salt.
Exercise: state measured melting point for each of the molecules provided.

[Q] Given Cn1c(NCCCN2CCCCC2)nc(-c2ccncc2)cc1=O [Compound 67] , state its recorded melting point.
[A] 162 to 163 °C

[Q] Please give the measured melting point for this molecule: CC(C)OCCCNc1nc(-c2ccncc2)cc(=O)n1C [Compound 63]
[A] 95 to 98 °C

[Q] Give its melting point value. Item: Cn1c(NCc2cccc(OCCCO)c2)nc(-c2ccncc2)cc1=O [Compound 71]
[A] 98 to 101 °C

[Q] Given the molecule Cn1c(N2CCCCC2)nc(-c2ccncc2)cc1=O (as salt: tartrate) [Compound 38] , what is its reported melting point?
[A] 228 to 230 °C

[Q] Given the entry Cn1c(NC2Cc3ccccc3C2)nc(-c2ccncc2)cc1=O [Compound 37] , report its measured melting point.
[A] 211.5 to 211.8 °C

[Q] melting point lookup needed for CCCCCCCNc1nc(-c2ccncc2)cc(=O)n1C [Compound 50] , thanks.
[A] 121 to 123 °C

[Q] Entry under review: CCCCCNc1nc(-c2ccncc2)cc(=O)n1C [Compound 48] . Reported melting point?
[A] 157 to 159 °C

[Q] melting point for CC(=O)OC(CNc1nc(-c2ccncc2)cc(=O)n1C)c1ccccc1 (centres unmarked) [Compound 69] ?
[A] 81 to 84 °C

[Q] So what's the measured melting point for this one? CCOCCCNc1nc(-c2ccncc2)cc(=O)n1C [Compound 59]
[A] 118 to 120 °C

[Q] Please look up its melting point: Cn1c(NCCCCO)nc(-c2ccncc2)cc1=O [Compound 62]
[A] 159 to 161 °C

[Q] Given the molecule NCCCCCCn1c(NCCCc2ccccc2)nc(-c2ccncc2)cc1=O (as salt: hydrochloride) , what is its reported melting point?
[A] 192 to 195 °C
